- Tested on: c-Abl (mouse);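 further: 11-residue human phosphosite peptides and single-mutation variants displayed on the E. coli surface, counted by deep sequencing, each peptide's frequency after selection divided by its frequency in the unselected input library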;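 further: frequency after pTyr selection over input frequency; kinase dosed for 20-30% of maximal phosphorylation in three min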
- MEASUREMENT_PROTOCOL: phosphorylation enrichment, bacterial display (enrichment ratio); higher = better substrate or ligand; peptides without Tyr show the background
phosphorylation enrichment values for the sequences below.
Number, no unit, nothing else.

Examples with answers:
IN: Give phosphorylation enrichment only, for ADELEYSRTGL [MMUT_Y287_G284E] , using c-Abl (mouse) data.
OUT: 0.644

IN: Give phosphorylation enrichment only, for YIRRDYEACKA [BBS4_Y48_K46R] , using c-Abl (mouse) data.
OUT: 0.64

IN: Give phosphorylation enrichment only, for KVIDMYLMGCF [GABRB2_Y308_A304V] , using c-Abl (mouse) data.
OUT: 0.964

IN: Give phosphorylation enrichment only, for NSIGNYYKPWF [DHCR24_Y299] , using c-Abl (mouse) data.
OUT: 14.1

IN: Give phosphorylation enrichment only, for GGFTCYCDGKK [PROS1_Y266_YF] , using c-Abl (mouse) data.
OUT: 0.758

Next:
IN: Give phosphorylation enrichment only, for LYSNAYLSDLA [ALDH1A1_Y119_N121S] , using c-Abl (mouse) data.
OUT: 0.618

IN: Give phosphorylation enrichment only, for FSALDYKIFYY [WDPCP_Y210_L205F] , using c-Abl (mouse) data.
OUT: 1.2

IN: Give phosphorylation enrichment only, for RHPLDYLRQFP [NARS2_Y138_E137D_YF] , using c-Abl (mouse) data.
OUT: 0.753

From: the supplement of paper PMC10065799
